test-protocol: Maximum tolerated dose in mice
Assay type: in vivo
assay-conditions: mouse, in vivo, ip, single intraperitoneal injection in sterile PBS
reported-endpoint: MTD

[in] May I ask what MTD has been recorded for COC(=O)c1ccc(C2c3[nH]c4ccccc4c3CC(C(=O)OC)N2C(=O)CCl)cc1 (stereo not shown) ?
[out] > 400 mg/kg

----------
Tested on: SR
reported-endpoint: GI50 (µM)
Enter your answer as a number in µM; do not include the unit.

Some solved cases for reference:
compound	reported-endpoint	measurement
C=C1CCC2C(C)(C)CCC[C@]2(C)C1CC/C(C)=C\CC/C(C)=N/NC(N)=S (stereo partly shown)	GI50	1.32
COC(=O)c1ccc(C2c3[nH]c4ccccc4c3CC(C(=O)OC)N2C(=O)CCl)cc1 (stereo not shown)	GI50	0.4
CCc1c(O)c2c(c(O)c1O[C@H]1O[C@@H](COC(C)=O)[C@H](OC(C)=O)[C@@H](CC(C)=O)[C@@H]1OC(C)=O)C(=O)C(O[C@@H]1O[C@H](COC(C)=O)[C@@H](OC(C)=O)[C@H](OC(C)=O)[C@H]1OC(C)=O)=C(O[C@@H]1O[C@H](COC(C)=O)[C@@H](OC(C)=O)[C@H](OC(C)=O)[C@H]1OC(C)=O)C2=O	GI50	2.65

For the next question, use this compound.
[in] Write down the reported GI50 of COCCOC(=O)C1=C(C)NC2=C(C(=O)CC(c3ccc(Cl)cc3)C2)C1c1ccccc1F (stereo not shown) , test system: SR.
[out] 7.15

----------
Test system: HL-60(TB)
assay-conditions: Leukemia
reported-endpoint: GI 100% (µM)
Enter your answer as a number in µM; do not include the unit.

Some solved cases for reference:
compound	measured-on	GI 100% [µM]
COC(=O)c1ccc(C2c3[nH]c4ccccc4c3CC(C(=O)OC)N2C(=O)CCl)cc1 (centres unmarked)	HL-60(TB)	0.537
CCc1c(O)c2c(c(O)c1O[C@H]1O[C@@H](COC(C)=O)[C@H](OC(C)=O)[C@@H](CC(C)=O)[C@@H]1OC(C)=O)C(=O)C(O[C@@H]1O[C@H](COC(C)=O)[C@@H](OC(C)=O)[C@H](OC(C)=O)[C@H]1OC(C)=O)=C(O[C@@H]1O[C@H](COC(C)=O)[C@@H](OC(C)=O)[C@H](OC(C)=O)[C@H]1OC(C)=O)C2=O	HL-60(TB)	2.38

For the next question, use this compound.
[in] May I ask what GI 100% has been recorded for C=C1CCC2C(C)(C)CCC[C@]2(C)C1CC/C(C)=C\CC/C(C)=N/NC(N)=S (some centres unmarked) ?
[out] 0.545

----------
Tested on: HT29
test-protocol: NCI60 anti-cancer screening
assay-conditions: Homo sapiens, HT-29, read-out: LC 50%
reported-endpoint: CC50 (µM)
Enter your answer as a number in µM; do not include the unit.

compound	measurement
COC(=O)c1ccc(C2c3[nH]c4ccccc4c3CC(C(=O)OC)N2C(=O)CCl)cc1 (stereo not shown) [Compound 27]	4.06

[in] May I ask what CC50 has been recorded for C=C1CCC2C(C)(C)CCC[C@]2(C)C1CC/C(C)=C\CC/C(C)=N/NC(N)=S (stereo partly shown) [Compound 36] ?
[out] 4.1

----------
Data export: GI50 values recorded with HOP-92.
Enter your answer as a number in nM; do not include the unit.

[in] May I ask what GI50 has been recorded for COC(=O)c1ccc(C2c3[nH]c4ccccc4c3CC(C(=O)OC)N2C(=O)CCl)cc1 (stereo not shown) ?
[out] 99.1

[in] Also need COCCOC(=O)C1=C(C)NC2=C(C(=O)CC(c3ccc(Cl)cc3)C2)C1c1ccccc1F (stereo not shown) , thanks.
[out] 6180

[in] Also need C=C1CCC2C(C)(C)CCC[C@]2(C)C1CC/C(C)=C\CC/C(C)=N/NC(N)=S (stereo partly shown) , thanks.
[out] 479

[in] Also need CCc1c(O)c2c(c(O)c1O[C@H]1O[C@@H](COC(C)=O)[C@H](OC(C)=O)[C@@H](CC(C)=O)[C@@H]1OC(C)=O)C(=O)C(O[C@@H]1O[C@H](COC(C)=O)[C@@H](OC(C)=O)[C@H](OC(C)=O)[C@H]1OC(C)=O)=C(O[C@@H]1O[C@H](COC(C)=O)[C@@H](OC(C)=O)[C@H](OC(C)=O)[C@H]1OC(C)=O)C2=O , thanks.
[out] 1480
